- Tested on: HCI-019 (organoid from a triple-negative breast cancer xenograft)
- Protocol description: CTG-3D luminescence at 96 h relative to day-0 seeding control (ratio to day 0); higher = more growth / less cytotoxicity; PDxO 3D drug screen (set 2), 96 h, CTG-3D normalised to day-0 seeding control.
- Condition info: 10 µM; days in culture: 215
I'd appreciate it if you could supply CTG-3D luminescence at 96 h values for the items below.
Answers are plain numbers.

Here is how some molecules turned out for CTG-3D luminescence at 96 h.
>  <Entry smiles>
CO[C@H]1C[C@@H]2CC[C@@H](C)[C@@](O)(O2)C(=O)C(=O)N2CCCC[C@H]2C(=O)O[C@H]([C@H](C)C[C@@H]2CC[C@@H](OCCO)[C@H](OC)C2)CC(=O)[C@H](C)/C=C(\C)[C@@H](O)[C@@H](OC)C(=O)[C@H](C)C[C@H](C)/C=C/C=C/C=C/1C

>  <CTG-3D luminescence at 96 h>
0.326

$$$$
>  <Entry smiles>
Cc1c(CN2CCN(C(=O)[C@H](C)O)CC2)sc2c(N3CCOCC3)nc(-c3cnc(N)nc3)nc12

>  <CTG-3D luminescence at 96 h>
0.15

$$$$
>  <Entry smiles>
CCOc1ccn(-c2ccc(F)cc2)c(=O)c1C(=O)Nc1ccc(Oc2ccnc(N)c2Cl)c(F)c1

>  <CTG-3D luminescence at 96 h>
0.724

$$$$
>  <Entry smiles>
C[C@@H](Nc1cc(F)cc(F)c1)c1cc(C(=O)N(C)C)cc2c(=O)cc(N3CCOCC3)oc12

>  <CTG-3D luminescence at 96 h>
1.39

$$$$

Continue with the next molecule.
Record CC(C)n1nc(-c2ccc3oc(N)nc3c2)c2c(N)ncnc21 . Reported CTG-3D luminescence at 96 h: 0.192

* * *

- System: HCI-019
- Protocol description: CTG-3D luminescence at 96 h relative to day-0 seeding control (ratio to day 0); higher = more growth / less cytotoxicity; PDxO 3D drug screen, 96 h, CTG-3D normalised to day-0 seeding control.
- Condition info: 0.1 µM; days in culture: 152
Each entry gets criterion not met if its CTG-3D luminescence at 96 h stays under 2, and criterion met if its CTG-3D luminescence at 96 h is 2 or above.

>  <Compound>
O=C(/C=C/c1cccnc1)NCCCCC1CCN(C(=O)c2ccccc2)CC1

>  <Target system>
HCI-019

>  <Assigned label>
criterion not met

$$$$
>  <Compound>
CN(Cc1cnc2nc(N)nc(N)c2n1)c1ccc(C(=O)N[C@@H](CCC(=O)O)C(=O)O)cc1 [methotrexate]

>  <Target system>
HCI-019

>  <Assigned label>
criterion met

$$$$
>  <Compound>
NC(=O)c1cccc2cn(-c3ccc([C@@H]4CCCNC4)cc3)nc12

>  <Target system>
HCI-019

>  <Assigned label>
criterion not met

$$$$
>  <Compound>
CS(=O)(=O)c1ccc(C(=O)Nc2ccc(Cl)c(-c3ccccn3)c2)c(Cl)c1

>  <Target system>
HCI-019

>  <Assigned label>
criterion not met

$$$$
>  <Compound>
C[C@]12CC[C@@H]3c4ccc(O)cc4C[C@@H](CCCCCCCCC[S+]([O-])CCCC(F)(F)C(F)(F)F)[C@H]3[C@@H]1CC[C@@H]2O (stereo partly specified)

>  <Target system>
HCI-019

>  <Assigned label>
criterion met

$$$$

Now for another entry.
Prompt: Quick check: does O=C(c1ccc(F)c(F)c1Nc1ccc(I)cc1F)N1CC(O)([C@@H]2CCCCN2)C1 have CTG-3D luminescence at 96 h greater than or equal to 2?
Completion: criterion not met

* * *

- Tested on: HCI-016 (organoid from a triple-negative breast cancer xenograft)
- Protocol description: CTG-3D luminescence at 96 h relative to day-0 seeding control (ratio to day 0); higher = more growth / less cytotoxicity; PDxO 3D drug screen (set 2), 96 h, CTG-3D normalised to day-0 seeding control.
- Condition info: 100 µM; days in culture: 305
Value type: CTG-3D luminescence at 96 h
Numbers only.

>  <Molecule>
CO[C@H]1C[C@@H]2CC[C@@H](C)[C@@](O)(O2)C(=O)C(=O)N2CCCC[C@H]2C(=O)O[C@H]([C@H](C)C[C@@H]2CC[C@@H](O)[C@H](OC)C2)CC(=O)[C@H](C)/C=C(\C)[C@@H](O)[C@@H](OC)C(=O)[C@H](C)C[C@H](C)/C=C/C=C/C=C/1C

>  <CTG-3D luminescence at 96 h>
0.0174

$$$$
>  <Molecule>
Nc1cc(C(F)(F)F)c(-c2cc(N3CCOCC3)nc(N3CCOCC3)n2)cn1

>  <CTG-3D luminescence at 96 h>
0.606

$$$$
>  <Molecule>
COc1cccc2c1C(=O)c1c(O)c3c(c(O)c1C2=O)C[C@@](O)(C(=O)CO)C[C@@H]3O[C@H]1C[C@H](N)[C@@H](O)[C@H](C)O1 [epirubicin]

>  <CTG-3D luminescence at 96 h>
-0.0142

$$$$
>  <Molecule>
CS(=O)(=O)CCNCc1ccc(-c2ccc3ncnc(Nc4ccc(OCc5cccc(F)c5)c(Cl)c4)c3c2)o1

>  <CTG-3D luminescence at 96 h>
-0.00685

$$$$
>  <Molecule>
CC(=O)c1c(C)c2cnc(Nc3ccc(N4CCNCC4)cn3)nc2n(C2CCCC2)c1=O

>  <CTG-3D luminescence at 96 h>
2.12

$$$$

Pending molecule:
Query C[C@@H](Nc1cc(F)cc(F)c1)c1cc(C(=O)N(C)C)cc2c(=O)cc(N3CCOCC3)oc12 on HCI-016; CTG-3D luminescence at 96 h returned: 1.51

* * *

- System: HCI-001 (organoid from a triple-negative breast cancer xenograft)
- Protocol description: CTG-3D luminescence at 96 h relative to day-0 seeding control (ratio to day 0); higher = more growth / less cytotoxicity; PDxO 3D drug screen, 96 h, CTG-3D normalised to day-0 seeding control.
- Condition info: 12.5 pM; days in culture: 260
Please go through the items and note down their CTG-3D luminescence at 96 h.
One number for each entry.

>  <Compound>
Cc1nc(-c2cn3c(n2)-c2ccc(-c4cnn(C(C)(C)C(N)=O)c4)cc2OCC3)n(C(C)C)n1 [taselisib]

>  <CTG-3D luminescence at 96 h>
2.04

$$$$

Consider the following items and state reported CTG-3D luminescence at 96 h for each.
1. NC1(C(=O)N[C@@H](CCO)c2ccc(Cl)cc2)CCN(c2nc[nH]c3nccc2-3)CC1 [capivasertib]
2. C[C@H](NC(=O)CCC(F)(F)F)C(=O)N[C@@H]1C(=O)N(CCO)c2ncccc2-c2ccccc21 [crenigacestat]
3. CN(Cc1cnc2nc(N)nc(N)c2n1)c1ccc(C(=O)N[C@@H](CCC(=O)O)C(=O)O)cc1 [methotrexate]
4. CS(=O)(=O)c1ccc(C(=O)Nc2ccc(Cl)c(-c3ccccn3)c2)c(Cl)c1 [vismodegib]

Completion:
2.26
2.03
2.08
2.49

Bench note, HCI-001: entry CC(C)n1nc(-c2ccc3oc(N)nc3c2)c2c(N)ncnc21 [sapanisertib] , its CTG-3D luminescence at 96 h = 2.4

* * *

Consider the following molecules; for each one, report its CTG-3D luminescence at 96 h.
- Tested on: HCI-023 (organoid from a triple-negative breast cancer xenograft)
- Protocol description: CTG-3D luminescence at 96 h relative to day-0 seeding control (ratio to day 0); higher = more growth / less cytotoxicity; PDxO 3D drug screen (set 2), 96 h, CTG-3D normalised to day-0 seeding control.
- Condition info: 12.5 pM; days in culture: 238
Numbers only.

Consider the reported CTG-3D luminescence at 96 h for these molecules:
>  <Entry smiles>
CC(C)n1nc(-c2ccc3oc(N)nc3c2)c2c(N)ncnc21

>  <CTG-3D luminescence at 96 h>
1.38

$$$$
>  <Entry smiles>
CO[C@H]1C[C@@H]2CC[C@@H](C)[C@@](O)(O2)C(=O)C(=O)N2CCCC[C@H]2C(=O)O[C@H]([C@H](C)C[C@@H]2CC[C@@H](OCCO)[C@H](OC)C2)CC(=O)[C@H](C)/C=C(\C)[C@@H](O)[C@@H](OC)C(=O)[C@H](C)C[C@H](C)/C=C/C=C/C=C/1C

>  <CTG-3D luminescence at 96 h>
1.22

$$$$
>  <Entry smiles>
CCOc1ccn(-c2ccc(F)cc2)c(=O)c1C(=O)Nc1ccc(Oc2ccnc(N)c2Cl)c(F)c1

>  <CTG-3D luminescence at 96 h>
1.66

$$$$

Here is the next item to consider.
Entry CO[C@H]1C[C@@H]2CC[C@@H](C)[C@@](O)(O2)C(=O)C(=O)N2CCCC[C@H]2C(=O)O[C@H]([C@H](C)C[C@@H]2CC[C@@H](O)[C@H](OC)C2)CC(=O)[C@H](C)/C=C(\C)[C@@H](O)[C@@H](OC)C(=O)[C@H](C)C[C@H](C)/C=C/C=C/C=C/1C : CTG-3D luminescence at 96 h on HCI-023 = 1.36

* * *

- Tested on: HCI-017.E2 (organoid from an ER-positive breast cancer xenograft)
- Protocol description: CTG-3D luminescence at 96 h relative to day-0 seeding control (ratio to day 0); higher = more growth / less cytotoxicity; PDxO 3D drug screen, 96 h, CTG-3D normalised to day-0 seeding control.
- Condition info: 0.1 µM
// label = 1 if CTG-3D luminescence at 96 h is not less than 2, otherwise -1

Worked set:
>  <Compound>
CCc1c2c(nc3ccc(O)cc13)-c1cc3c(c(=O)n1C2)COC(=O)[C@]3(O)CC [SN-38]

>  <Assigned label>
-1

$$$$
>  <Compound>
Nc1ccn([C@@H]2O[C@H](CO)[C@@H](O)C2(F)F)c(=O)n1 [gemcitabine]

>  <Assigned label>
-1

$$$$
>  <Compound>
CS(=O)(=O)c1ccc(C(=O)Nc2ccc(Cl)c(-c3ccccn3)c2)c(Cl)c1 [vismodegib]

>  <Assigned label>
-1

$$$$
>  <Compound>
COc1cc2c(Oc3ccc4[nH]c(C)cc4c3F)ncnc2cc1OCCCN1CCCC1 [cediranib]

>  <Assigned label>
1

$$$$

Prompt: Check this compound for CTG-3D luminescence at 96 h at or above 2: CC(C)n1nc(-c2ccc3oc(N)nc3c2)c2c(N)ncnc21 [sapanisertib]
Completion: -1

Prompt: Could you verify whether the entry C=CC(=O)N1CCC[C@@H](n2nc(-c3ccc(Oc4ccccc4)cc3)c3c(N)ncnc32)C1 [ibrutinib] shows CTG-3D luminescence at 96 h of no less than 2?
Completion: 1

Prompt: Please tell me: is the compound COc1cccc2c1C(=O)c1c(O)c3c(c(O)c1C2=O)C[C@@](O)(C(=O)CO)C[C@@H]3O[C@H]1C[C@H](N)[C@H](O)[C@H](C)O1 [doxorubicin] at or over 2 in terms of CTG-3D luminescence at 96 h?
Completion: -1
